- System: SF-539 CNS
- Assay method text: NCI tumour cell line growth inhibition, 48 h
Entries and their TGI
Please give a number only; it is taken to be in µM.

Record excerpt, results attached:
>>> experimental_value("[CH3][Sn]([CH3])([CH3])[O][N+](=O)[O-]")
9.58
>>> experimental_value("c1ccc([P+](CCCCCC[P+](c2ccccc2)(c2ccccc2)c2ccccc2)(c2ccccc2)c2ccccc2)cc1")
39
>>> experimental_value("Cc1nccc2c3ccc(OCc4cn(-c5ccc(Cl)cc5)nn4)cc3n(CC(C)C)c12")
10.9
>>> experimental_value("CSc1ccc(C(=O)/C=C/c2ccccc2Cl)cc1")
33.1
>>> experimental_value("O=C1NC(c2cccc(OCc3ccccc3)c2)Nc2ccccc21 (configuration not stated)")
0.708

Returns the measured TGI for the input compound. Input: "O=[N+]([O-])C(=C/c1cccs1)/C(=C\c1cccs1)[N+](=O)[O-]"
0.417

Returns the measured TGI for the input compound. Input: "O=[N+]([O-])c1cc2c([N+](=O)[O-])cccc2o1"
6.67

Returns the measured TGI for the input compound. Input: "O=C1c2ccccc2C(=O)c2c(NCCCN3CCOCC3)ccc(NCCCN3CCOCC3)c21"
4.03

Returns the measured TGI for the input compound. Input: CC1=C([Se]CC(OC(=O)[C@@H](CO)NC(=O)OC(C)(C)C)C(=O)NCCCCCC(=O)OCc2ccccc2)C(=O)c2ccccc2C1=O (some centres not stated)
3.09

Returns the measured TGI for the input compound. Input: "CC1=NN(c2nc(N)nc(/C(C#N)=C\c3cccc([N+](=O)[O-])c3)n2)C(C)(C)C1"
36.5

The reported measurements were obtained from PubChem BioAssay (NCI).
